We begin with a simple list: items and their reported Papp B→A at 1 h, 10 µM.
System: MDR1 (P-glycoprotein)
Test: in vitro
Type: in vitro ADME, canine
Settings: dog, MDCK-MDR1, pH 7.4, Papp B>A n=1, MDR1 MDCK
Procedure: internal standard at each timepoint. […] including an analytical internal standard. Apparent permeability (Papp) values were determined from the relationship: […] Efflux ratios (Papp B>A / Papp A>B) were calculated for each compound from the […] order to confirm the involvement of MDR1 in any efflux seen, an “ef fective efflux ratio” (EER) was calculated by comparing compound efflux ratios (ER) in the two cell types, i.e. EER = ER (MDR1-MDCK)/ ER (wild-type MDCK). […]
Report the figure in ×10⁻⁶ cm/s without appending any unit label.

Guide cases for Papp B→A at 1 h, 10 µM, answers given:
| compound | target-entity | value-units | Papp B→A at 1 h, 10 µM |
| --- | --- | --- | --- |
| Cc1cc2c(c(C)c1Cl)N(CC(=O)O)C(=O)CO2 | MDR1 (P-glycoprotein) | ×10⁻⁶ cm/s | 1.8 |
| CC(C)NCC(O)COc1cccc2ccccc12 (stereo not drawn) [Propranolol, reference compound] | MDR1 (P-glycoprotein) | ×10⁻⁶ cm/s | 39 |
| Cn1c(C(=O)N[C@@H](C(=O)O)c2ccccc2)cc2cc(F)ccc21 | MDR1 (P-glycoprotein) | ×10⁻⁶ cm/s | 2.4 |
| CC[C@]1(O)C[C@@H]2CN(CCc3c([nH]c4ccccc34)[C@@](C(=O)OC)(c3cc4c(cc3OC)N(C)[C@H]3[C@@](O)(C(=O)OC)[C@H](OC(C)=O)[C@]5(CC)C=CCN6CC[C@]43[C@@H]65)C2)C1 [Vinblastine, reference compound] | MDR1 (P-glycoprotein) | ×10⁻⁶ cm/s | 24 |
| CC(CSc1ccc(Cl)cc1)C(=O)O (stereo not drawn) | MDR1 (P-glycoprotein) | ×10⁻⁶ cm/s | 51 |

Papp B→A at 1 h, 10 µM in this record for Oc1ccc(-c2csc3nc(-c4ccccc4)nn23)c(O)c1 : 4.9

---

Test: Rat brain penetration study
Assay type: in vivo, male Han Wistar rats
Details: male, Han Wistar, brain, intravenous, 5 mg free base/kg, 1b 5 mg/kg i.v., 60 min, single rats, read-out: Unbound brain, prodrug 1b
observation-type: concentration at 60 min (ng/g)
Report the figure in ng/g without appending any unit label.

concentration at 60 min in this record for CCOC(=O)CN1C(=O)COc2cc(C)c(Cl)c(C)c21 : 1

---

Tested on: MDR1 (P-glycoprotein)
Test: in vitro
Assay type: in vitro ADME, canine
Details: dog, MDCK-MDR1, pH 7.4, MDR1 MDCK; read-out: Recovery A>B Mean
observation-type: recovery at 1 h, 10 µM (%)
Report the figure in % without appending any unit label.

Guide cases for recovery at 1 h, 10 µM, answers given:
| compound | value-reported |
| --- | --- |
| Oc1ccc(-c2csc3nc(-c4ccccc4)nn23)c(O)c1 | 18 |
| Cc1cc2c(c(C)c1Cl)N(CC(=O)O)C(=O)CO2 | 99 |
| CC(C)NCC(O)COc1cccc2ccccc12 (stereo not drawn) [Propranolol, reference compound] | 92.5 |
| CC[C@]1(O)C[C@@H]2CN(CCc3c([nH]c4ccccc34)[C@@](C(=O)OC)(c3cc4c(cc3OC)N(C)[C@H]3[C@@](O)(C(=O)OC)[C@H](OC(C)=O)[C@]5(CC)C=CCN6CC[C@]43[C@@H]65)C2)C1 [Vinblastine, reference compound] | 55 |
| CC(CSc1ccc(Cl)cc1)C(=O)O (stereo not drawn) | 82 |

recovery at 1 h, 10 µM in this record for Cn1c(C(=O)N[C@@H](C(=O)O)c2ccccc2)cc2cc(F)ccc21 : 83
